Assay: Induction of anti-CD3/CD28 antibodies-stimulated human T cell activation at 4 uM assessed fold increase in CD25 expression measured by ELISA assay
Format: functional, T cell line
measureName: fold change (FC)
// no unit string in output, number only

// known answers, use as guide
CC(C)c1cccc(C(=O)Nc2cccc([C@H](C)Sc3nncn3C)c2)n1 = 1.01
Cc1cc(C(=O)Nc2cccc(C3(Cc4nncn4C)COC3)c2)nc(C2CC2)c1 = 1.51
C[C@H](Cc1nncn1C)c1cccc(NC(=O)c2cc(O[C@@H]3CC[C@@H](O)C3)ccn2)c1 (relative stereo) = 1.31
C[C@H](Cc1nncn1C)c1cccc(N2Cc3c(cc(C4CC4)cc3C(F)(F)F)C2=O)c1 = 1.31
CNC(=O)COc1ccc2cnc(C(=O)Nc3cccc([C@H](C)Sc4nncn4C)c3)cc2c1 = 1.01

// query # get_value(readout='fold change (FC)', item= "C[C@H](Sc1nncn1C)c1cccc(NC(=O)c2ccc(CO)c(C3CC3)n2)c1" )
// result 1.31

// query // query: "Cn1cnnc1[C@@H]1C[C@@H]1c1cccc(NC(=O)c2nc3c(C(F)(F)F)cccc3[nH]2)c1"
// result 1.01

// query Param item: "Cn1cnnc1C(F)(F)[C@](C)(F)c1cccc(N2Cc3c(cc(CN4CC(C#N)C4)cc3C(F)(F)F)C2=O)c1"
// result 1.01

====

Measured fold change (FC) by item
Assay: Induction of anti-CD3/CD28 antibodies-stimulated human T cell activation at 4 uM assessed fold increase in IL-2 secretion measured by ELISA assay
Assay type: functional, T cell line
Provide a numeric answer; units are not to be included.

C[C@H](Cc1nncn1C)c1cccc(NC(=O)c2[nH]nc3c2CCCC3)c1 = 1.01
C[C@H](Cc1nncn1C)c1cccc(NC(=O)c2cnn3cccnc23)c1 = 1.01
Cn1cnnc1C(F)(F)[C@](C)(F)c1cccc(NC(=O)c2nc3c(C(F)(F)F)cccc3[nH]2)c1 = 2.51
Cn1cnnc1CC(c1cccc(N2Cc3c(cccc3C(F)(F)F)C2=O)c1)C(F)(F)F (configuration not stated) = 1.01

// query # input compound: C[C@H](Cc1nncn1C)c1cccc(NC(=O)c2cc(C(=O)N3CC(O)C(F)(F)C3)ccn2)c1 (some centres not stated) ; wanted: its fold change (FC)
// result 2.51

// query Now try "C[C@@H]1CN(C)CCN1c1cc2c(c(C(F)(F)F)c1)CN(c1cccc([C@@](C)(F)C(F)(F)c3nncn3C)c1)C2=O" .
// result 2.51

// query What about this compound? "Cc1cc(C(=O)Nc2cc([C@H](C)Sc3nncn3C)ccn2)nc(C(F)(F)F)c1"
// result 1.01

// query Again, but for "Cn1cnnc1[C@H](F)[C@](C)(F)c1cccc(N2Cc3c(cc(C4CC4)cc3C(F)(F)F)C2=O)c1"
// result 2.51

====

Assay: Induction of anti-CD3 antibodies-stimulated human T cell activation at 8 uM assessed fold increase in IL-2 secretion measured by ELISA assay
Assay type: functional, T cell line
measureName: fold change (FC)

Some solved cases for reference:
Cn1cnnc1CC1(c2cccc(N3Cc4c(cc(CN5CC(F)C5)cc4C(F)(F)F)C3=O)c2)COC1 = >=0.201
C[C@H]1CN(C)CCN1c1cc2c(c(C(F)(F)F)c1)CN(c1cccc([C@@](C)(F)C(F)(F)c3nncn3C)c1)C2=O = >=0.201
C[C@H](c1cc2c(c(C(F)(F)F)c1)CN(c1cccc(C3(Cc4nncn4C)COC3)c1)C2=O)N1CCC(F)(F)C1 = >=0.201
COc1cc(C(=O)Nc2cccc([C@H](C)Cc3nncn3C)c2)nc(C(F)(F)F)c1 = 0.101

// query Reported fold change (FC), compound "C[C@H](Sc1nncn1C)c1cccc(NC(=O)c2cccc(C(C)(F)F)n2)c1" : ____
// result 0.151

// query Same again, this time with "C[C@H](Cc1nncn1C)c1cccc(NC(=O)c2cc(C3CC3)cc(C(F)(F)F)n2)c1"
// result >=0.201

// query Request: "C[C@H](Cc1nncn1C)c1cccc(N2Cc3c(cc([C@@H](C)N4CC[C@H](F)C4)cc3C(F)(F)F)C2=O)c1"
// result >=0.201

// query Consider next the compound "CCOc1cc([C@H](C)Cc2nncn2C)cc(N2Cc3c(cccc3C(F)(F)F)C2=O)n1" in the same way.
// result >=0.201

====

Assay: Induction of anti-CD3 antibodies-stimulated human T cell activation at 8 uM assessed fold increase in IL-2 secretion measured by ELISA assay
Type: functional, T cell line
measureName: fold change (FC)

The cases that follow already have their fold change (FC) on record.
C[C@H](Cc1nncn1C)c1cccc(N2Cc3c(cc(C(C)(C)O)cc3C(F)(F)F)C2=O)c1 = 0.151
CC(Cc1nncn1C)c1cc(N[C@@H]2CCOC2)nc(N2Cc3c(cccc3C(F)(F)F)C2=O)c1 (single isomer, unassigned) = 0.101
CCNc1cc([C@H](C)Cc2nncn2C)cc(N2Cc3c(cccc3C(F)(F)F)C2=O)n1 = >=0.201
Cc1cc(C(=O)Nc2cccc([C@H]3C[C@H]3c3nncn3C)c2)nc(C2CC2)n1 = >=0.201

// query Bench note: what fold change (FC) did "COc1cc(C(=O)Nc2cccc([C@H](C)Sc3nncn3C)c2)nc(C(F)(F)F)c1" show?
// result >=0.201

====

Test: Induction of anti-CD3/CD28 antibodies-stimulated human T cell activation at 10 uM assessed fold increase in TNF-alpha secretion measured by ELISA assay
Type: functional, T cell line
measureName: fold change (FC)

Observe how each entry below is paired with its result.
C[C@H](Cc1nncn1C)c1cccc(N2Cc3c(cc(CN4CC(C)(O)C4)cc3C(F)(F)F)C2=O)c1 = 2.01
Cc1cc(C(=O)Nc2cccc([C@@H](C)Cc3nncn3C)c2)nc(C2CC2)n1 = 2.01

// query Dear colleague, I am looking for the recorded fold change (FC) of the following compound: "C[C@H](Cc1nncn1C)c1cccc(N2Cc3c(cc(CN4CC(O)C4)cc3C(F)(F)F)C2=O)c1"
// result 1.51

// query Try this compound next: "Cc1cc2c(c(C3CC3)n1)CN(c1cccc([C@H](C)Cc3nncn3C)c1)C2=O"
// result 2.01

====

Test: Induction of anti-CD3/CD28 antibodies-stimulated human T cell activation at 4 uM assessed fold increase in CD25 expression measured by ELISA assay
Type: functional, T cell line
measureName: fold change (FC)
Field format: numeric only.

Some entries whose results are on file:
C[C@@H](c1cc2c(c(C(F)(F)F)c1)CN(c1cccc([C@@](C)(F)C(F)(F)c3nncn3C)c1)C2=O)N1CC[C@H](F)C1 = 1.51
C[C@H](Cc1nncn1C)c1cccc(N2Cc3c(cc(CO)cc3C(F)(F)F)C2=O)c1 = 1.31

Alright, here's another molecule for you.
// query # input molecule: "C[C@H](Cc1nncn1C)c1cc(NC2COC2)nc(N2Cc3c(cccc3C(F)(F)F)C2=O)c1" ; wanted: its fold change (FC)
// result 1.31

====

Experiment: Induction of anti-CD3 antibodies-stimulated human CD4+ T cell activation at 1.11 uM assessed fold increase in CD69 expression measured by flow cytometry analysis
Format: functional, T cell line
measureName: fold change (FC)

Past entries and their recorded results:
C[C@H](Sc1nncn1C)c1cccc(NC(=O)c2cccc(C(F)(F)F)n2)c1 = <=1.2
COC1CN(Cc2cc3c(c(C(F)(F)F)c2)CN(c2cccc([C@@](C)(F)C(F)(F)c4nncn4C)c2)C3=O)C1 = 1.401
Cc1cc(C(=O)Nc2cccc([C@H](C)Cc3nncn3C)c2)nc(C2CC2)n1 = <=1.2
C[C@H](Cc1nncn1C)c1cccc(N2Cc3c(cc(CN4CC(C)(O)C4)cc3C(F)(F)F)C2=O)c1 = >1.601
Cc1n[nH]c(C)c1-c1cc2c(c(C(F)(F)F)c1)CN(c1cccc(C3(Cc4nncn4C)COC3)c1)C2=O = 1.401

// query Record request: fold change (FC) value, item Cn1cnnc1C(F)(F)C(C)(F)c1cccc(N2Cc3c(cc(CN4CC[C@@H](F)C4)cc3C(F)(F)F)C2=O)c1 (single isomer, unassigned)
// result 1.401

// query Field entry: "Cn1cnnc1C(F)(F)[C@](C)(F)c1cccc(N2Cc3c(cc(C(=O)N4CC[C@H](O)C4)cc3C(F)(F)F)C2=O)c1"
// result 1.201

// query Check "C[C@H](Cc1nncn1C)c1cccc(NC(=O)c2n[nH]c3c2CCC3)c1" too.
// result >1.601

====

Each record here notes measured fold change (FC).
Test: Induction of anti-CD3/CD28 antibodies-stimulated human T cell activation at 0.3 uM assessed fold increase in CD25 expression measured by ELISA assay
Format: functional, T cell line
When you answer, write just the number.

Example results:
C[C@@H]1CN(Cc2cc3c(c(C(F)(F)F)c2)CN(c2cccc(C4(Cc5nncn5C)COC4)c2)C3=O)CCO1 = 1.31
CN1CC2CCC1CN2c1cc2c(c(C(F)(F)F)c1)CN(c1cccc(C3(Cc4nncn4C)COC3)c1)C2=O (stereo not drawn) = 1.01
CC(=O)N1CCN(c2ccc3cnc(C(=O)Nc4cccc([C@H](C)Cc5nncn5C)c4)cc3c2)CC1.O=C(O)C(F)(F)F = 1.01
C[C@H](Cc1nncn1C)c1cc(OCC(F)F)nc(N2Cc3c(cccc3C(F)(F)F)C2=O)c1 = 1.01
C[C@H](Sc1nncn1C)c1cccc(NC(=O)c2cc(C(=O)N3CC[C@H](O)C3)ccn2)c1 = 1.01

Now for another entry.
// query # query: fold change (FC) of entry Cn1cnnc1CC1(c2cccc(NC(=O)c3cc(CN4CCC5CC54)cc(C4CC4)n3)c2)COC1 (stereo not drawn)
// result 1.31
